For reference, the following IC50 results for Neprilysin (Rattus norvegicus) were taken from various sources.
Express your answer in µM, writing the number without its unit.

Recorded IC50, per entry:
compound: CSCC[C@H](NC(=O)C(CS)Cc1ccccc1)C(=O)O (mixture of isomers)
readoutName: IC50
unitText: µM
numericValue: 0.0067
--
compound: CC(=O)SCC(Cc1ccccc1)NC(=O)Nc1ccccc1 (centres unmarked)
readoutName: IC50
unitText: µM
numericValue: 0.1
--
compound: O=C(N[C@@H](Cc1ccc(-c2ccccc2)cc1)C(=O)O)[C@H](CS)Cc1ccccc1
readoutName: IC50
unitText: µM
numericValue: 0.0061
--
compound: O=C(CS)N[C@H](Cc1ccccc1)[C@H](O)C(=O)O
readoutName: IC50
unitText: µM
numericValue: 3
--
compound: COc1cccc(NC(=O)C(CS)Cc2ccccc2)c1 (centres unmarked)
readoutName: IC50
unitText: µM
numericValue: 0.06

// moving on: another record for IC50
IC50 lookup needed for CC[C@H](C)[C@H](S)C(=O)N[C@H]1CC[C@@H](C)[C@H]2SC[C@@H](C(=O)O)N2C1=O , thanks.
0.0067
